Test system: 953936-095-R-J2-PDC spheroids with HUVEC/MSC, viability;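 note: spheroids exposed to compounds for seven days before read-out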
Assay: Anticancer human tumor 953936-095-R-J2-PDC patient-derived cervical squamous cell carcinoma cell line growth inhibition [PI3K]
Settings: second compound 0.0316 µM; first compound 0.1 µM; hits give low values
Binary call on viability, T/C with cut-off 90%: strictly below means 1 (yes), and equality or higher means 0 (no).

Here's an entry: C[C@@H](NC(=O)c1ncnc(N)c1Cl)c1ncc(C(=O)Nc2cc(C(F)(F)F)c(Cl)cn2)s1 + Cc1nc(NC(=O)N2CCCC2C(N)=O)sc1-c1ccnc(C(C)(C)C(F)(F)F)c1 . Is its viability, T/C below 90%?
0 (no)

Here's an entry: CC(Cn1ccc(-c2ccc(C#N)c(Cl)c2)n1)NC(=O)c1cc(C(C)O)[nH]n1 (stereo unspecified) + Cc1nc(NC(=O)N2CCCC2C(N)=O)sc1-c1ccnc(C(C)(C)C(F)(F)F)c1 . Is its viability, T/C below 90%?
0 (no)

Here's an entry: CC(=O)c1c(C)c2cnc(Nc3ccc(N4CCNCC4)cn3)nc2n(C2CCCC2)c1=O + CC(Nc1ccc2c(c1)OCCn1cc(N3C(=O)OCC3C(F)F)nc1-2)C(N)=O . Is its viability, T/C below 90%?
1 (yes)

Here's an entry: CC(C)n1nc(-c2ccc3oc(N)nc3c2)c2c(N)ncnc21 + CC(Nc1ccc2c(c1)OCCn1cc(N3C(=O)OCC3C(F)F)nc1-2)C(N)=O . Is its viability, T/C below 90%?
1 (yes)

Here's an entry: CC(C)NCC(C(=O)N1CCN(c2ncnc3c2C(C)CC3O)CC1)c1ccc(Cl)cc1 (stereo unspecified) + CC(Nc1ncnc2nc[nH]c12)c1cc2cccc(Cl)c2c(=O)n1-c1ccccc1 . Is its viability, T/C below 90%?
0 (no)

Here's an entry: Cn1nccc1Nc1nccc(-c2ccn(C(CO)c3ccc(Cl)c(F)c3)c(=O)c2)n1 (stereo unspecified) + CC(Nc1ccc2c(c1)OCCn1cc(N3C(=O)OCC3C(F)F)nc1-2)C(N)=O . Is its viability, T/C below 90%?
1 (yes)

Here's an entry: C=CC(=O)N1CCN(c2nc(=O)n(-c3c(C)ccnc3C(C)C)c3nc(-c4c(O)cccc4F)c(F)cc23)C(C)C1 (stereo unspecified) + CC(Nc1ncnc2nc[nH]c12)c1cc2cccc(Cl)c2c(=O)n1-c1ccccc1 . Is its viability, T/C below 90%?
0 (no)

Here's an entry: Cn1ncc(Cl)c1-c1cc(C(=O)NC(CN)Cc2cccc(F)c2)sc1Cl (stereo unspecified) + CC(Nc1ccc2c(c1)OCCn1cc(N3C(=O)OCC3C(F)F)nc1-2)C(N)=O . Is its viability, T/C below 90%?
1 (yes)
